# Tested on: HeLa Kyoto
# assaySummary: melting temperature (median over replicates), in situ; higher = more thermally stable
# conditionSet: cell cycle stage: mitosis
quantityName: melting temperature (°C)
Give bare numbers, in °C.

Using the record for MSEEQFGGDGAAAAATAAVGGSAGEQEGAMVAATQGAAAAAGSGAGTGGGTASGGTEGGSAESEGAKIDASKNEEDEGHSNSSPRHSEAATAQREEWKMFIGGLSWDTTKKDLKDYFSKFGEVVDCTLKLDPITGRSRGFGFVLFKESESVDKVMDQKEHKLNGKVIDPKRAKAMKTKEPVKKIFVGGLSPDTPEEKIREYFGGFGEVESIELPMDNKTNKRRGFCFITFKEEEPVKKIMEKKYHNVGLSKCEIKVAMSKEQYQQQQQWGSRGGFAGRARGRGGGPSQNWNQGYSNYWNQGYGNYGYNSQGYGGYGGYDYTGYNNYYGYGDYSNQQSGYGKVSRRGGHQNSYKPY [HNRNPD] , state its measured melting temperature.
54.9

* * *

Give measured solubility change mitosis (log2) for each item. Keep answers brief.
# System: HeLa Kyoto
# assaySummary: solubility change mitosis vs G1/S (difference of NP-40 vs SDS log2 ratios) (log2 ratio difference); higher = more soluble in mitosis
Answers are plain numbers.

Provide solubility change mitosis (log2) values for the following items, in order.
1. MASTSYDYCRVPMEDGDKRCKLLLGIGILVLLIIVILGVPLIIFTIKANSEACRDGLRAVMECRNVTHLLQQELTEAQKGFQDVEAQAATCNHTVMALMASLDAEKAQGQKKVEELEGEITTLNHKLQDASAEVERLRRENQVLSVRIADKKYYPSSQDSSSAAAPQLLIVLLGLSALLQ [BST2]
2. ZWILCH
3. MAVTLSLLLGGRVCAAVTRCGFATRGVAGPGPIGREPDPDSDWEPEERELQEVESTLKRQKQAIRFQKIRRQMEAPGAPPRTLTWEAMEQIRYLHEEFPESWSVPRLAEGFDVSTDVIRRVLKSKFLPTLEQKLKQDQKVLKKAGLAHSLQHLRGSGNTSKLLPAGHSVSGSLLMPGHEASSKDPNHSTALKVIESDTHRTNTPRRRKGRNKEIQDLEESFVPVAAPLGHPRELQKYSSDSESPRGTGSGALPSGQKLEELKAEEPDNFSSKVVQRGREFFDSNGNFLYRI [NGRN]
4. MAAVDIRDNLLGISWVDSSWIPILNSGSVLDYFSERSNPFYDRTCNNEVVKMQRLTLEHLNQMVGIEYILLHAQEPILFIIRKQQRQSPAQVIPLADYYIIAGVIYQAPDLGSVINSRVLTAVHGIQSAFDEAMSYCRYHPSKGYWWHFKDHEEQDKVRPKAKRKEEPSSIFQRQRVDALLLDLRQKFPPKFVQLKPGEKPVPVDQTKKEAEPIPETVKPEEKETTKNVQQTVSAKGPPEKRMRLQ [MED6]
5. POMGNT1

1. 0.237
2. -0.229
3. 0.276
4. 0.222
5. -0.0514

Provide reported solubility change mitosis (log2) for each item, in the same order as listed.
1. MAEGNTLISVDYEIFGKVQGVFFRKHTQAEGKKLGLVGWVQNTDRGTVQGQLQGPISKVRHMQEWLETRGSPKSHIDKANFNNEKVILKLDYSDFQIVK [ACYP1]
2. MWRMRGGATRRGSCCGGDGAADGRGPGRSGRARGGGSPSGGGGGVGWRGRADGARQQLEERFADLAASHLEAIRARDEWDRQNARLRQENARLRLENRRLKRENRSLFRQALRLPGEGGNGTPAEARRVPEEASTNRRARDSGREDEPGSPRALRARLEKLEAMYRRALLQLHLEQRGPRPSGDKEEQPLQEPDSGLRSRDSEPSGPWL [TUSC1]
3. MSGLRVYSTSVTGSREIKSQQSEVTRILDGKRIQYQLVDISQDNALRDEMRALAGNPKATPPQIVNGDQYCGDYELFVEAVEQNTLQEFLKLA [SH3BGRL3]
4. MPAHLLQDDISSSYTTTTTITAPPSRVLQNGGDKLETMPLYLEDDIRPDIKDDIYDPTYKDKEGPSPKVEYVWRNIILMSLLHLGALYGITLIPTCKFYTWLWGVFYYFVSALGITAGAHRLWSHRSYKARLPLRLFLIIANTMAFQNDVYEWARDHRAHHKFSETHADPHNSRRGFFFSHVGWLLVRKHPAVKEKGSTLDLSDLEAEKLVMFQRRYYKPGLLMMCFILPTLVPWYFWGETFQNSVFVATFLRYAVVLNATWLVNSAAHLFGYRPYDKNISPRENILVSLGAVGEGFHNYHHSFPYDYSASEYRWHINFTTFFIDCMAALGLAYDRKKVSKAAILARIKRTGDGNYKSG [SCD]
5. MSSTLAKIAEIEAEMARTQKNKATAHHLGLLKARLAKLRRELITPKGGGGGGPGEGFDVAKTGDARIGFVGFPSVGKSTLLSNLAGVYSEVAAYEFTTLTTVPGVIRYKGAKIQLLDLPGIIEGAKDGKGRGRQVIAVARTCNLILIVLDVLKPLGHKKIIENELEGFGIRLNSKPPNIGFKKKDKGGINLTATCPQSELDAETVKSILAEYKIHNADVTLRSDATADDLIDVVEGNRVYIPCIYVLNKIDQISIEELDIIYKVPHCVPISAHHRWNFDDLLEKIWDYLKLVRIYTKPKGQLPDYTSPVVLPYSRTTVEDFCMKIHKNLIKEFKYALVWGLSVKHNPQKVGKDHTLEDEDVIQIVKK [DRG1]
6. MERKRWECPALPQGWEREEVPRRSGLSAGHRDVFYYSPSGKKFRSKPQLARYLGGSMDLSTFDFRTGKMLMSKMNKSRQRVRYDSSNQVKGKPDLNTALPVRQTASIFKQPVTKITNHPSNKVKSDPQKAVDQPRQLFWEKKLSGLNAFDIAEELVKTMDLPKGLQGVGPGCTDETLLSAIASALHTSTMPITGQLSAAVEKNPGVWLNTTQPLCKAFMVTDEDIRKQEELVQQVRKRLEEALMADMLAHVEELARDGEAPLDKACAEDDDEEDEEEEEEEPDPDPEMEHV [MBD3]

1. -0.0383
2. 0.105
3. -0.132
4. -0.151
5. -0.0219
6. 0.629

Return reported solubility change mitosis (log2) values for all items listed beneath this line.
1. MQIIRHSEQTLKTALISKNPVLVSQYEKLNAGEQRLMNEAFQPASDLFGPITLHSPSDWITSHPEAPQDFEQFFSDPYRKTPSPNKRSIYIQSIGSLGNTRIISEEYIKWLTGYCKAYFYGLRVKLLEPVPVSVTRCSFRVNENTHNLQIHAGDILKFLKKKKPEDAFCVVGITMIDLYPRDSWNFVFGQASLTDGVGIFSFARYGSDFYSMHYKGKVKKLKKTSSSDYSIFDNYYIPEITSVLLLRSCKTLTHEIGHIFGLRHCQWLACLMQGSNHLEEADRRPLNLCPICLHKLQCAVGFSIVERYKALVRWIDDESSDTPGATPEHSHEDNGNLPKPVEAFKEWKEWIIKCLAVLQK [AMZ2]
2. MNPTLILAAFCLGIASATLTFDHSLEAQWTKWKAMHNRLYGMNEEGWRRAVWEKNMKMIELHNQEYREGKHSFTMAMNAFGDMTSEEFRQVMNGFQNRKPRKGKVFQEPLFYEAPRSVDWREKGYVTPVKNQGQCGSCWAFSATGALEGQMFRKTGRLISLSEQNLVDCSGPQGNEGCNGGLMDYAFQYVQDNGGLDSEESYPYEATEESCKYNPKYSVANDTGFVDIPKQEKALMKAVATVGPISVAIDAGHESFLFYKEGIYFEPDCSSEDMDHGVLVVGYGFESTESDNNKYWLVKNSWGEEWGMGGYVKMAKDRRNHCGIASAASYPTV [CTSL]

1: -0.0784; 2: 0.0996

* * *

# Test system: HeLa Kyoto
# assaySummary: thermal stability score vs G1/S (z-score of summed log2 fold changes over temperatures); higher = more thermally stable than in G1/S
# conditionSet: cell cycle stage: mitosis
So I've got a bunch of sequences here, and I need their thermal stability score values.
Numbers only.

MPGVKLTTQAYCKMVLHGAKYPHCAVNGLLVAEKQKPRKEHLPLGGPGAHHTLFVDCIPLFHGTLALAPMLEVALTLIDSWCKDHSYVIAGYYQANERVKDASPNQVAEKVASRIAEGFSDTALIMVDNTKFTMDCVAPTIHVYEHHENRWRCRDPHHDYCEDWPEAQRISASLLDSRSYETLVDFDNHLDDIRNDWTNPEINKAVLHLC [EMC8]    -2.67

Go through the items and report each one's thermal stability score.
1. MAAPALGLVCGRCPELGLVLLLLLLSLLCGAAGSQEAGTGAGAGSLAGSCGCGTPQRPGAHGSSAAAHRYSREANAPGPVPGERQLAHSKMVPIPAGVFTMGTDDPQIKQDGEAPARRVTIDAFYMDAYEVSNTEFEKFVNSTGYLTEAEKFGDSFVFEGMLSEQVKTNIQQAVAAAPWWLPVKGANWRHPEGPDSTILHRPDHPVLHVSWNDAVAYCTWAGKRLPTEAEWEYSCRGGLHNRLFPWGNKLQPKGQHYANIWQGEFPVTNTGEDGFQGTAPVDAFPPNGYGLYNIVGNAWEWTSDWWTVHHSVEETLNPKGPPSGKDRVKKGGSYMCHRSYCYRYRCAARSQNTPDSSASNLGFRCAADRLPTMD [SUMF1]
2. MAYQSLRLEYLQIPPVSRAYTTACVLTTAAVQLELITPFQLYFNPELIFKHFQIWRLITNFLFFGPVGFNFLFNMIFLYRYCRMLEEGSFRGRTADFVFMFLFGGFLMTLFGLFVSLVFLGQAFTIMLVYVWSRRNPYVRMNFFGLLNFQAPFLPWVLMGFSLLLGNSIIVDLLGIAVGHIYFFLEDVFPNQPGGIRILKTPSILKAIFDTPDEDPNYNPLPEERPGGFAWGEGQRLGG [DERL2]

2.23
-1.33
